System: SF-539
Assay: NCI tumour cell line growth inhibition, 48 h
Calls of active or inactive are those of the source. No stated cut-off is given here; in the data, active = GI50 up to about 1.1 µM and inactive = higher.
Answer with one of the outcomes active, inactive

Here are 2 molecules together with their reported answers.
molecule	assigned_label
COC(=O)/C=C(\S/C(=C(/c1ccc(OC)cc1)n1cc(C(=O)OC)c(C(=O)OC)n1)c1ccc(OC)cc1)C(=O)OC	inactive
COc1ccc(Cn2nc(OCc3ccccc3)c3cc([N+](=O)[O-])ccc32)cc1	inactive

Query: Kindly provide the recorded test outcome for the following molecule: `Nn1c(S)nnc1C12CC3CC(CC(C3)C1)C2`
Result: inactive

Query: Recorded call for `COc1ccc(-n2c(CCC(=O)O)nc3c2C(=O)c2ccccc2C3=O)cc1` ?
Result: inactive

Query: Hi, sorry to bother you, what did the test record for CC(O)c1cc2c(s1)C(=O)c1c(C(C)O)csc1C2=O (stereo not given) ?
Result: active

====

GI50 reference
Test system: TK-10
Experiment: NCI tumour cell line growth inhibition, 48 h
Calls of active or inactive are those of the source. Cut-off read from the data, not from the text of the source: active = GI50 up to about 1.1 µM and inactive = higher.

Reference set (5 entries):
molecule	measured_target	reading
C/C1=C/C2OC(=O)C3(C)C2C(CC2(C)OC1=CC2=O)OC3(O)C(C)C (stereo unspecified)	TK-10	41.5 µM (inactive)
CN(C)CC1COC2Cc3ccccc3C1O2 (stereo unspecified)	TK-10	> 100 µM (inactive)
CON(C)C(=O)C(C)N(Cc1ccccc1)Cc1ccccc1 (stereo unspecified)	TK-10	> 100 µM (inactive)
COc1ccc(OC)c(-c2nc3n(c2/C=C2/C(=O)Nc4ccccc42)CCS3)c1	TK-10	41.2 µM (inactive)
Fc1ccc(Oc2nc3ccccc3nc2-c2ccccc2)cc1	TK-10	> 100 µM (inactive)

Recorded GI50 (molecule `Cc1ccc(-c2nnc(SCC(=O)O)[nH]2)cc1` ): > 100 µM (inactive)

====

System: T47D
Assay: NCI tumour cell line growth inhibition, 48 h
Activity calls are given as the source filed them. Cut-off read from the data, not from the text of the source: active = GI50 up to about 1.1 µM and inactive = higher.
Respond only with the outcome that fits, drawn from active, inactive

Check out these entries, answers already filled in.
molecule	assigned_label
CC(=O)OCC1OC(n2c3c(c(-c4cccc5ccccc45)c(C#N)c2=S)CCCC3)C(OC(C)=O)C(OC(C)=O)C1OC(C)=O (stereo not drawn)	inactive
CC(O[Si](c1ccccc1)(c1ccccc1)C(C)(C)C)[C@H](NC(=O)OC(C)(C)C)C(=O)O (stereo partly drawn)	inactive

Now look at this one.
Query: // param item: `O=C(O)COCC(=O)N(CCOCCN(Cc1ccccc1)C(=O)COCC(=O)O)Cc1ccccc1` ; yields the recorded call
Result: inactive

====

Test system: U-251
Assay: NCI tumour cell line growth inhibition, 48 h
Active and inactive are the calls of the source. Cut-off read from the data, not from the text of the source: active = GI50 up to about 1.1 µM and inactive = higher.
measured_endpoint: GI50

Known GI50 results, listed for orientation:
compound	measured_target	reading
CC[C@]1(Cc2ccc(OC)c(OC)c2)[C@@H]2C[C@@H](C3OCCO3)ON2O[C@H](OC2CCCC2(c2ccccc2)c2ccccc2)[C@@H]1OC(C)=O (stereo partly specified)	U-251	33.2 µM (inactive)
Cc1nc(Cl)c2sc(=S)n(-c3ccc(F)cc3)c2n1	U-251	5.06 µM (inactive)
Cn1cnc([N+](=O)[O-])c1Sc1nc2ccccc2[nH]1	U-251	20 µM (inactive)
N#C/C(=C\c1cc(OCc2ccccc2)c(OCc2ccccc2)cn1)C(N)=O	U-251	> 100 µM (inactive)
Cc1ccc(-c2c(C#N)c(S)n(NS(=O)(=O)c3ccc(C)cc3)c(=O)c2C#N)cc1	U-251	18.1 µM (inactive)
c1ccc2c(CCNC3=NCCO3)cccc2c1	U-251	> 10 µM (inactive)

Consider `COC(=O)[C@@H](NC(=O)c1ccc(CNC(=O)/C(C)=C/c2ccccc2)cc1)C(C)C` . Its measured GI50 is > 100 µM (inactive)

Noted for `COc1cc2c(cc1OCCCN1C(=O)c3cccc4cccc(c34)C1=O)N=C[C@@H]1CCCN1C2=O` : its GI50 reads 39.5 µM (inactive)

NC1=NN(c2ccccc2)C2(c3ccncc3C(=O)O)C1C(N)=NN2c1ccccc1 (stereo unspecified) has a reported GI50 of > 100 µM (inactive)

// recorded GI50 for `COc1ccc(/C=C/C(=O)c2cccc(C(=O)/C=C/c3ccc(OC)c(OC)c3)n2)cc1OC` : 6.52 µM (inactive)
